biological target: Serine/threonine-protein phosphatase 5 (Homo sapiens) (UniProt P53041); assay: inhibition of PP5 catalytic domain, physiologic substrate – biochemical, radiolabeled phosphohistone, dose response, round 5, orthogonal assay, late-stage follow-up (AID 624439); details: purified PP5c, 33P-phosphohistone dephosphorylation, scintillation
Sequence (P53041 whole entry, looked up, the tested form may be a part): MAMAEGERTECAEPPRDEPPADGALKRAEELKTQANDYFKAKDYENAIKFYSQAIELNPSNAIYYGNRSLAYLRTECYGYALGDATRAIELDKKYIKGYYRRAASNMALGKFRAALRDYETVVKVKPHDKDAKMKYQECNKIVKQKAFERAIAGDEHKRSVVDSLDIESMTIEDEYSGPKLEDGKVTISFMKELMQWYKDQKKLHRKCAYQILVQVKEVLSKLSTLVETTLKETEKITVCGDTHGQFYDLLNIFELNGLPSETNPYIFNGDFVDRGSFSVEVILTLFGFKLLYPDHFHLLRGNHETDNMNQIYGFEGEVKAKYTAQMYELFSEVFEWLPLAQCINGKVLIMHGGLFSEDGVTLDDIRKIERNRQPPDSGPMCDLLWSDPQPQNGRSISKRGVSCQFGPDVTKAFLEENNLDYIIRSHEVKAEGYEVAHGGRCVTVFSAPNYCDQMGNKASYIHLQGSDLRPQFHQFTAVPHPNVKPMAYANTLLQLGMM
Calls of active or inactive are those of the source.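 Rule for the calls: active = compounds with an IC50 below 50 µM against the phosphatase; inactive = IC50 at 50 µM or above.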
Outcome codes: active, inactive

{"molecule.smiles": "CC(C)Oc1ccccc1-c1n[nH]nc1C(=O)O", "assayed.system": "Serine/threonine-protein phosphatase 5 (Homo sapiens) (UniProt P53041)", "category.label": "active"}
{"molecule.smiles": "COc1cccc(-c2n[nH]nc2C(=O)O)c1", "assayed.system": "Serine/threonine-protein phosphatase 5 (Homo sapiens) (UniProt P53041)", "category.label": "active"}
{"molecule.smiles": "COc1ccc(-c2n[nH]nc2C(=O)O)cc1", "assayed.system": "Serine/threonine-protein phosphatase 5 (Homo sapiens) (UniProt P53041)", "category.label": "inactive"}
{"molecule.smiles": "O=C(O)c1n[nH]nc1-c1ccccc1O", "assayed.system": "Serine/threonine-protein phosphatase 5 (Homo sapiens) (UniProt P53041)", "category.label": "active"}
{"molecule.smiles": "O=C(O)c1n[nH]nc1-c1ccccc1F", "assayed.system": "Serine/threonine-protein phosphatase 5 (Homo sapiens) (UniProt P53041)", "category.label": "active"}
{"molecule.smiles": "O=C(O)c1n[nH]nc1-c1cccc(F)c1", "assayed.system": "Serine/threonine-protein phosphatase 5 (Homo sapiens) (UniProt P53041)", "category.label": "inactive"}
{"molecule.smiles": "COc1ccccc1-c1n[nH]nc1C(=O)O", "assayed.system": "Serine/threonine-protein phosphatase 5 (Homo sapiens) (UniProt P53041)", "category.label": "active"}
{"molecule.smiles": "O=C(O)c1n[nH]nc1-c1ccc(F)cc1", "assayed.system": "Serine/threonine-protein phosphatase 5 (Homo sapiens) (UniProt P53041)", "category.label": "inactive"}
